System: Escherichia coli TOP10;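 further: peptides expressed intracellularly from a pBAD plasmid library in pooled LB shake-flask culture, induced with 0.3% L-arabinose, DNA abundance read by NGS, three biological replicates, DESeq2 with apeglm shrinkage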
experiment notes: shrunken log2 fold change of peptide-encoding DNA abundance (4.5 h post-induction vs induction); higher = less antimicrobial activity (less host growth inhibition)
condition summary: time post-induction: 4.5 h; library: site-saturation at positions 5, 18, 19, 20
Please enter yes where shrunken log2 fold change is greater than or equal to -0.1, and no where it is lower.

ordered residues: RRIRWRPPRLPRPRPRPMEKPRP
answer label: yes

ordered residues: RRIRGRPPRLPRPRPRPSCHPRP
answer label: yes

ordered residues: RRIRVRPPRLPRPRPRPTPAPRP
answer label: yes

ordered residues: RRIRNRPPRLPRPRPRPIPHPRP
answer label: yes

ordered residues: RRIRSRPPRLPRPRPRPTHHPRP
answer label: yes

ordered residues: RRIRNRPPRLPRPRPRPWEEPRP
answer label: yes

ordered residues: RRIRKRPPRLPRPRPRPLVPPRP
answer label: yes

ordered residues: RRIRDRPPRLPRPRPRPGGPPRP
answer label: yes

ordered residues: RRIRGRPPRLPRPRPRPVYNPRP
answer label: yes

ordered residues: RRIRPRPPRLPRPRPRPSRCPRP
answer label: yes

ordered residues: RRIRNRPPRLPRPRPRPYWQPRP
answer label: no

ordered residues: RRIRKRPPRLPRPRPRPMDSPRP
answer label: yes

ordered residues: RRIRQRPPRLPRPRPRPDGFPRP
answer label: yes

ordered residues: RRIRHRPPRLPRPRPRPNEIPRP
answer label: no

ordered residues: RRIRERPPRLPRPRPRPHDTPRP
answer label: no

ordered residues: RRIRERPPRLPRPRPRPMDEPRP
answer label: no

ordered residues: RRIRWRPPRLPRPRPRPDSLPRP
answer label: no

ordered residues: RRIRSRPPRLPRPRPRPMVWPRP
answer label: yes

ordered residues: RRIRVRPPRLPRPRPRPLWMPRP
answer label: no

ordered residues: RRIRERPPRLPRPRPRPRFWPRP
answer label: yes

ordered residues: RRIRGRPPRLPRPRPRPYWFPRP
answer label: yes

ordered residues: RRIRTRPPRLPRPRPRPPCTPRP
answer label: yes

ordered residues: RRIRMRPPRLPRPRPRPIFLPRP
answer label: no

ordered residues: RRIRSRPPRLPRPRPRPNPWPRP
answer label: yes

ordered residues: RRIRFRPPRLPRPRPRPIKDPRP
answer label: no

ordered residues: RRIRHRPPRLPRPRPRPNFIPRP
answer label: yes

ordered residues: RRIRTRPPRLPRPRPRPFTMPRP
answer label: no

ordered residues: RRIRRRPPRLPRPRPRPGCPPRP
answer label: yes

ordered residues: RRIRARPPRLPRPRPRPSGMPRP
answer label: yes

ordered residues: RRIRWRPPRLPRPRPRPDWQPRP
answer label: yes

ordered residues: RRIRYRPPRLPRPRPRPRCTPRP
answer label: no
